tested on: Leishmania braziliensis; assay: Antileishmanial activity against amastigotes of Leishmania (V.) braziliensis MHOM/CO/87/UA301 infected in BMDM assessed as reduction of intracellular amastigotes after 96 hrs by Giemsa staining; assay type: functional, organism-based; settings: MHOM/CO/87/UA301, BMDM
pEC50: −log10 of the molar value.

| smiles-input | pEC50 |
| --- | --- |
| CCc1ccc2nc(-c3ccccc3)ccc2c1 | 4.70 |

---

assay: Cytotoxicity against mouse BMDM after 96 hrs by MTT assay
pIC50: −log10 of the molar value.
Catalogue of pIC50 values
recorded-endpoint: pIC50

| compound | readout-value |
| --- | --- |
| CCN(CC)CCCCCCNc1cc(OC)cc2c(C)ccnc12 [SITAMAQUINE] | ≥ 4.00 |
| CCc1ccc2nc(-c3ccccc3)ccc2c1 | ≤ 3.70 |
| Cc1cc(C)c2ccc(-c3ccccc3)nc2c1 | ≥ 4.00 |
| CCCCCCCCCCCCCCCCOP(=O)([O-])OCC[N+](C)(C)C [MILTEFOSINE] | ≤ 3.70 |
